These measurements were taken from patent US20110159304A1.

test system: Desulfovibrio desulfuricans KCTC 5786; assay: Antibacterial activity evaluation, paper disk clear zone and MIC; format: cell-based; conditions: Desulfovibrio desulfuricans, KCTC5786; antibacterial agent concentration 0.1%; 8 mm paper disk, 50 μl; — = negative; read-out: CZ (mm) clear zone

{"columns": ["Compound", "Scale Unit", "Comparative Sign", "zone of inhibition at 0.1 %"],
 "data": [
  ["N#Cc1c(Cl)c(Cl)c(Cl)c(C#N)c1Cl [Chlorothalonil, reference compound]", "mm", "=", 2],
  ["O=C(CBr)OCc1ccccc1 [Benzyl-2-bromoacetate, benzyl-2-bromoacetate]", "mm", "≥", 39],
  ["Cc1cc(O)cc(C)c1Cl [4-chloro-3,5-dimethylphenol, reference compound]", "mm", "=", 1],
  ["CCCCNC(=O)OCC#CI [3-iodo-2-propynyl n-butylcarbamate, 97%, 3-iodo-2-propynyl n-butylcarbamate, reference compound]", "mm", "=", 3]
]}
